test: Stability in mouse liver microsomes; type: in vitro ADME; conditions: liver microsomes, pH 7.4, 0.5 mg/mL microsomal protein, 1.00 μM compound, NADPH, read-out: Half life T1/2, mouse liver microsomes
Each record here notes measured half-life at 1 μM.
value type: half-life at 1 μM (h)

molecule=CCN(C(=O)c1cc(F)ccc1Oc1cncnc1N1CC2(CCN(C[C@H]3CC[C@]4(CC3)CC(COC)(COC)C(=O)N4)CC2)C1)C(C)C value_type="half-life at 1 μM" uom=h qualifier_symbol=> result_number=2
molecule=CC(C)N(C(=O)c1cc(F)ccc1Oc1nncnc1N1CC2(CCN(C[C@H]3CC[C@@]4(CCC(=O)N4)CC3)CC2)C1)C(C)C value_type="half-life at 1 μM" uom=h qualifier_symbol== result_number=1.11
molecule="[2H]C([2H])([2H])C1C[C@]2(CC[C@@H](CN3CCC4(CC3)CN(c3ncnnc3Oc3ccc(F)cc3C(=O)N(C(C)C)C(C)C)C4)CC2)NC1=O (single isomer, unassigned)" value_type="half-life at 1 μM" uom=h qualifier_symbol== result_number=1.17
molecule=COC[C@@H]1C[C@]2(CC[C@@H](CN3CCC4(CC3)CN(c3ncnnc3Oc3ccc(F)cc3C(=O)N(C(C)C)C(C)C)C4)CC2)NC1=O value_type="half-life at 1 μM" uom=h qualifier_symbol== result_number=1.08
molecule="CCN(C(=O)c1cc(F)ccc1Oc1nncnc1N1CC2(CCN(CC3CC4CCC3CC43CCC(=O)N3)CC2)C1)C(C)C (single isomer, unassigned)" value_type="half-life at 1 μM" uom=h qualifier_symbol=> result_number=2
molecule=CCN(C(=O)c1cc(F)ccc1Oc1nncnc1N1CC2(CCN(C[C@H]3CC[C@]4(CC3)CC(COC)(COC)C(=O)N4)CC2)C1)C(C)C value_type="half-life at 1 μM" uom=h qualifier_symbol=> result_number=2

* * *

test system: MOLM-13; assay: Cell proliferation inhibition (CellTiter-Glo), MOLM-13; format: cell-based; details: Homo sapiens, MOLM-13, 168 h, MOLM-13 cells
Threshold 100 nM: GI50 strictly smaller gives condition met, otherwise condition not met.

compound="CC(C)N(C(=O)c1cc(F)ccc1Oc1nncnc1N1CC2(CCN(CC3CCC4(CC3)COC(=O)N4)CC2)C1)C(C)C (stereo not drawn)" classification="condition not met"
compound=CCN(C(=O)c1cc(F)ccc1Oc1nncnc1N1CC2(CCN(C[C@H]3CC[C@]4(CC3)CC(C)(C)C(=O)N4)CC2)C1)C(C)C classification="condition not met"
compound=CCN(C(=O)c1cc(F)ccc1Oc1nncnc1N1CC2(CCN(C[C@H]3CC[C@@]4(CCC(=O)N4)CC3)CC2)C1)C(C)C classification="condition not met"
compound=CC(C)N(C(=O)c1cc(F)ccc1Oc1nncnc1N1CC2(CCN(C[C@H]3CC[C@]4(CC3)CC(C)(C)C(=O)N4)CC2)C1)C1CC1 classification="condition not met"
compound="CCN(C(=O)c1cc(F)ccc1Oc1nncnc1N1CC2(CCN(C[C@H]3CC[C@]4(CC3)CC(C(C)(C)O)C(=O)N4)CC2)C1)C(C)C (single isomer, unassigned) [Example 58-1a]" classification="condition met"
compound="[2H]C([2H])([2H])C1C[C@]2(CC[C@@H](CN3CCC4(CC3)CN(c3ncnnc3Oc3ccc(F)cc3C(=O)N(C(C)C)C(C)C)C4)CC2)NC1=O (single isomer, unassigned)" classification="condition not met"
compound=CC(C)N(C(=O)c1cc(F)ccc1Oc1cncnc1N1CC2(CCN(C[C@H]3CC[C@]4(CC3)CC(C)(C)C(=O)N4)CC2)C1)C1CCC1 classification="condition met"
compound=CC(C)=C1C[C@]2(CC[C@@H](CN3CCC4(CC3)CN(c3ncnnc3Oc3ccc(F)cc3C(=O)N(C(C)C)C(C)C)C4)CC2)NC1=O classification="condition not met"
compound=CC(C)N(C(=O)c1cc(F)ccc1Oc1nncnc1N1CC2(CCN(C[C@H]3CC[C@@]4(CCC(=O)N4)CC3)CC2)C1)C(C)C classification="condition met"
compound=CCN(C(=O)c1cc(F)ccc1Oc1nncnc1N1CC2(CCN(C[C@H]3CC[C@]4(CC3)C[C@@H](COC)C(=O)N4)CC2)C1)C(C)C classification="condition met"
compound=CCN(C(=O)c1cc(F)ccc1Oc1nncnc1N1CC2(CCN(C[C@H]3CC[C@]4(CC3)CC(=C(C)C)C(=O)N4)CC2)C1)C(C)C classification="condition not met"
compound=COC[C@H]1C[C@]2(CC[C@@H](CN3CCC4(CC3)CN(c3ncnnc3Oc3ccc(F)cc3C(=O)N(C(C)C)C(C)C)C4)CC2)NC1=O classification="condition not met"
